Every entry's value here was drawn from patent US9849131B2.

tested on: hKv3.2 (Homo sapiens, UniProt Q96PR1)
Construct: expressed in transfected cells; host or cells: CHO-K1
Sequence (Q96PR1 whole entry): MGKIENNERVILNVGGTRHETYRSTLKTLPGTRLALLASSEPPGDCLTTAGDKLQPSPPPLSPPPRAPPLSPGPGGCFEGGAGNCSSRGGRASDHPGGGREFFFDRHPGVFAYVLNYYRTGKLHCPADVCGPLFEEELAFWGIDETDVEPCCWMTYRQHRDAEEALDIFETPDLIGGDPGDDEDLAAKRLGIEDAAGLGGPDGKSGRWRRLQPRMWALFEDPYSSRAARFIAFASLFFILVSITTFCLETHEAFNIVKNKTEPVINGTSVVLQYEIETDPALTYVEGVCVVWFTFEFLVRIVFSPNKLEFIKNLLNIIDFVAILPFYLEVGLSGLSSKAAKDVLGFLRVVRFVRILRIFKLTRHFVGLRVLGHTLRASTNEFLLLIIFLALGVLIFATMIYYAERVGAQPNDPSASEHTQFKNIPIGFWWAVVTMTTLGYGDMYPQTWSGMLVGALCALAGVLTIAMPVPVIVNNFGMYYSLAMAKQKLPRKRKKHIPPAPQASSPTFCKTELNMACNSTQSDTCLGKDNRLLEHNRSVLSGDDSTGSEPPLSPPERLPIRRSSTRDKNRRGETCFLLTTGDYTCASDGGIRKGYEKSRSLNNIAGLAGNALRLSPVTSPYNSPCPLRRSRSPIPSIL
measurement notes: IonWorks Quattro assay, secondary analysis of activation time constant (Tauact)
Type: cell-based
condition description: classification from effect on Tauact
reported metric: acts as positive or negative modulator of Kv3.1 and/or Kv3.2

Examples with answers:
INSERT INTO results (molecule, measured_result) VALUES
  ('CC[C@H]1NC(=O)N(c2ccc(Oc3ccc(C#N)cc3C(C)(C)C)nc2)C1=O [Example 71]', 'negative modulators'),
  ('CC[C@H]1NC(=O)N(c2ccc(Oc3ccc(C#N)c(C4CC4)c3)nc2)C1=O [Example 76]', 'positive modulators'),
  ('CC[C@H]1NC(=O)N(c2ccc(Oc3ccc(C#N)c(C(C)C)c3)nc2)C1=O [Example 77]', 'positive modulators'),
  ('CC1(C)NC(=O)N(c2ccc(Oc3cccc4c3C3(CC3)CO4)nc2)C1=O [Example 88]', 'negative modulators'),
  ('CC[C@H]1NC(=O)N(c2ccc(Oc3cccc4c3C3(CC3)CO4)nc2)C1=O [Example 87]', 'negative modulators');

Task: Param item = CC[C@H]1NC(=O)N(c2ccc(Oc3ccc(C#N)c(OC(F)(F)F)c3)nc2)C1=O [Example 82] ; retrieve measured acts as positive or negative modulator of Kv3.1 and/or Kv3.2.
Result: positive modulators

Task: Then what about the molecule CC[C@H]1NC(=O)N(c2ccc(Oc3ccc(C#N)c(OC(C)C)c3)nc2)C1=O [Example 80] ?
Result: positive modulators

Task: Then what about the molecule CC[C@@]1(C)NC(=O)N(c2ccc(Oc3ccc(C)c(OC)c3)nc2)C1=O [Example 30] ?
Result: positive modulators
